Source listed as paper PMC6023986.

MEASUREMENT TARGET: MRP3 (Rattus norvegicus, UniProt O88563)
Construct: intestinal segments including duodenum, jejunum, ileum, and colon from anesthetized rats were immediately removed by surgery; from tissue; host or cells: stripped rat intestine (jejunum and ileum in validation; jejunum for the emodin studies)
Sequence (O88563 whole entry): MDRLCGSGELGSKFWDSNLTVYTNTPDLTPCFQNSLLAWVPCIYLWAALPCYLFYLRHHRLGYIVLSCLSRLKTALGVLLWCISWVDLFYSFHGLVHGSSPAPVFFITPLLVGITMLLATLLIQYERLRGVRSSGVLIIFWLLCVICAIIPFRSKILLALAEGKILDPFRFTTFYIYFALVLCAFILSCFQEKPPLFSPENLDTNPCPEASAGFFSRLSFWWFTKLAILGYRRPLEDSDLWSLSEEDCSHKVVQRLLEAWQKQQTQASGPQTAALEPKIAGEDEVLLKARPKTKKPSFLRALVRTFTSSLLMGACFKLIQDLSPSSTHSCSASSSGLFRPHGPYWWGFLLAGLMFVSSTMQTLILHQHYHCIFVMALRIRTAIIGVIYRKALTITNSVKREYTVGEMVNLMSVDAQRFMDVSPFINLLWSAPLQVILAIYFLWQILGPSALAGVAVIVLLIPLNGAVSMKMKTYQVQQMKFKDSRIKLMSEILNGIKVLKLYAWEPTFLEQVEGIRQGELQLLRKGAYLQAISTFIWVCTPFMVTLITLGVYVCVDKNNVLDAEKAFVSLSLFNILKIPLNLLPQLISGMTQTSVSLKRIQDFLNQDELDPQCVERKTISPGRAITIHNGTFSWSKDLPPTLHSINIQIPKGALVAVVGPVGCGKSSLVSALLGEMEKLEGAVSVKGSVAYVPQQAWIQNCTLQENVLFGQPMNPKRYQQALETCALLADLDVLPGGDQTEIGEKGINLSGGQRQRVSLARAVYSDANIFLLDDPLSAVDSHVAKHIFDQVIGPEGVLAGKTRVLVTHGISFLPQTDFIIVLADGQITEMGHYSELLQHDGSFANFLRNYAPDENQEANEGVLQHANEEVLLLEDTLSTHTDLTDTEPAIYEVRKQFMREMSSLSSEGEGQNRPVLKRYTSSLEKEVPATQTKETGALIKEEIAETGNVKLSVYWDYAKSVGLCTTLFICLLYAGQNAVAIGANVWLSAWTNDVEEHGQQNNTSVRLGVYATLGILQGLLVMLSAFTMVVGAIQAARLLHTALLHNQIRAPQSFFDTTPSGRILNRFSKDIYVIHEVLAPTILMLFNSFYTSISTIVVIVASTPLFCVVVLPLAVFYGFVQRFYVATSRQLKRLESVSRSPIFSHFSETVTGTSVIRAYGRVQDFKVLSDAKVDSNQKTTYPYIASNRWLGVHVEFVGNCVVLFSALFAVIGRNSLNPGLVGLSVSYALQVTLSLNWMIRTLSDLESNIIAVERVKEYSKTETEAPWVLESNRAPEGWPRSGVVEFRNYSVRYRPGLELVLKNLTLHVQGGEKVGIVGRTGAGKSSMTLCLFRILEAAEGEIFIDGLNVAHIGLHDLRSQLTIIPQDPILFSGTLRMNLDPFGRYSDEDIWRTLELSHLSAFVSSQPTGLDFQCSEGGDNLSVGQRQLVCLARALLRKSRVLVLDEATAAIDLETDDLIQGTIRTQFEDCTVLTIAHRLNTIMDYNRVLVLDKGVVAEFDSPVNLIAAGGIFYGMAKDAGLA
ASSAY REMARKS: Influence of emodin on MRP3 function: teniposide bidirectional transport in the presence of emodin (Ussing chamber)
Assay type: in vitro ADME
EXPERIMENTAL SETUP: rat, pH 6.5, teniposide 60 μM, rat jejunum, without emodin; read-out: Papp M-S, control
ASSAY ENDPOINT: Papp at 60 μM
Number first, unit second.

IN: Entry under review: COc1cc([C@@H]2c3cc4c(cc3[C@@H](O[C@@H]3O[C@@H]5CO[C@@H](c6cccs6)O[C@H]5[C@H](O)[C@H]3O)[C@H]3COC(=O)[C@H]23)OCO4)cc(OC)c1O [Teniposide] . Reported Papp at 60 μM?
OUT: 69.4 ×10⁻⁶ cm/s
